- subject of test: human CYP11B2 (Homo sapiens, UniProt P19099)
- Construct: expressed in transfected cells
- test protocol: G-402 cellular enzyme assay, human CYP11B2 (aldosterone release, HTRF)
- Assay type: cell-based
- assay setup: G-402 cells, 1 μM Deoxycorticosterone
observed property: EC50

compound	subject of test	EC50
Cc1cncc(N2CCc3cc(Cl)ccc3C2=O)n1	human CYP11B2 (Homo sapiens, UniProt P19099)	1070 nM
COC(c1cncc(N2CCc3cc(Cl)ccc3C2=O)c1)C(F)(F)F (centres unmarked)	human CYP11B2 (Homo sapiens, UniProt P19099)	60.3 nM
CCC(=O)NC1CCCc2c1cncc2N1Cc2cc(Cl)ccc2C1=O (single isomer, unassigned)	human CYP11B2 (Homo sapiens, UniProt P19099)	28.2 nM
CC1c2cc(Cl)ccc2C(=O)N1c1cncc(F)c1 (centres unmarked)	human CYP11B2 (Homo sapiens, UniProt P19099)	122 nM
CC(=O)NCc1cncc(N2CCc3cc(Cl)ccc3C2=O)c1	human CYP11B2 (Homo sapiens, UniProt P19099)	302 nM

Value (EC50, human CYP11B2 (Homo sapiens, UniProt P19099)) for record CCC1c2cc(Cl)ccc2C(=O)N1c1cncc(F)c1 (centres unmarked) [Example 126] = 37.9 nM

Value (EC50, human CYP11B2 (Homo sapiens, UniProt P19099)) for record `CC(=O)N1CCN(c2cncc(N3C(=O)c4ccc(Cl)cc4C3(C)C)c2)CC1` = 8.6 nM

Value (EC50, human CYP11B2 (Homo sapiens, UniProt P19099)) for record `O=C1c2ccc(Cl)c(Cl)c2CCN1c1cccnc1` = 327 nM

Value (EC50, human CYP11B2 (Homo sapiens, UniProt P19099)) for record CC(=O)NC1CCCc2c1cncc2N1Cc2cc(Cl)ccc2C1=O (single isomer, unassigned) [Example 323] = 44.2 nM

Value (EC50, human CYP11B2 (Homo sapiens, UniProt P19099)) for record `Cc1nccn1Cc1cncc(N2C(=O)c3ccc(Cl)cc3C2(C)C)c1` = 18.6 nM

Value (EC50, human CYP11B2 (Homo sapiens, UniProt P19099)) for record `CC1(C)c2nc(Cl)ccc2C(=O)N1c1cncc(CNc2cc[nH]n2)c1` = 21 nM

Value (EC50, human CYP11B2 (Homo sapiens, UniProt P19099)) for record `O=C1c2ccc(Cl)cc2CCN1c1cncc(Cn2ccnc2C(F)(F)F)c1` = 55.3 nM

Value (EC50, human CYP11B2 (Homo sapiens, UniProt P19099)) for record `COc1cncc(N2C(=O)c3ccc(Cl)cc3C2(C)C)c1` = 15.5 nM

Value (EC50, human CYP11B2 (Homo sapiens, UniProt P19099)) for record CC[C@@H]1c2cc(Cl)ccc2C(=O)N1c1cncc2c1CC[C@@H]2NC(C)=O (single isomer, unassigned) = 15.1 nM

Value (EC50, human CYP11B2 (Homo sapiens, UniProt P19099)) for record `O=C1c2ccc(Cl)cc2CCN1c1cncc(CNc2ccc(Cl)cc2)c1` = 471 nM

----------
// values below are reported EC50
- subject of test: human CYP11B2 (Homo sapiens)
- Sequence (P19099 25-503): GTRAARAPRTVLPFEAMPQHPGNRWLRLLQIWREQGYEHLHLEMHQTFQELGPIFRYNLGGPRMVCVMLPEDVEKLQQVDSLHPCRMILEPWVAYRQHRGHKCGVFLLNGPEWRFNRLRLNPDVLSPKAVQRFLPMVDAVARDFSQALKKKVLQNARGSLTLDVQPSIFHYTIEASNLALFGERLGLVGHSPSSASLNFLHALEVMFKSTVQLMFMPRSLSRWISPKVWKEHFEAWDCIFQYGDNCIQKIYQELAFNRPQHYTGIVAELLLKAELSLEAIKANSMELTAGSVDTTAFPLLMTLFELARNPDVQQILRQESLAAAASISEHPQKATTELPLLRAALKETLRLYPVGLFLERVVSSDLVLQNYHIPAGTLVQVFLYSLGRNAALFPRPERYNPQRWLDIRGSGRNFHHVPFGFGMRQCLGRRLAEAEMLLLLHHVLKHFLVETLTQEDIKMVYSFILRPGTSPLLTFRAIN
- test protocol: G-402 cellular enzyme assay, human CYP11B2 (aldosterone release, HTRF)
- assay setup: G-402 cells, 1 μM Deoxycorticosterone
Dear colleague, please return just the value in nM, with no unit written.

Reported EC50 for CC1(C)c2nc(Cl)ccc2C(=O)N1c1cccnc1 [Example 298] was 175

Reported EC50 for COC[C@@H]1CCCN1c1cncc(N2CCc3cc(Cl)ccc3C2=O)c1 [Example 49] was 49.6

Reported EC50 for Cc1nccn1Cc1cncc(N2CCc3cc(Cl)ccc3C2=O)c1 [Example 142] was 80.2

Reported EC50 for CC1(C)c2ccc(Cl)cc2C(=O)N1c1cncc(CNS(C)(=O)=O)c1 [Example 408] was 923
